The next entries give measured Ki for Human immunodeficiency virus type 1 protease (Human immunodeficiency virus 1).
Expressed in µM, but write only the number.

CC(C)(C)OC(=O)N[C@H](C(=O)C(=C=N)c1ccc([N+](=O)[O-])cc1)C(=O)C(N)c1ccccc1 (some centres not stated) | 30

From here, focus on the item given below.
Inquiry: Would you mind telling me what Ki value was observed for "N=C=C(C(=O)[C@H](Cc1ccccc1)NC(=O)OCc1ccccc1)c1ccc([N+](=O)[O-])cc1" ?
Reply text: 30
